System: full-length MALT1 protein (Strep-MALT1(1-824)-His) (Homo sapiens (Human)) | Read-out: IC50
Sequence (Q9UDY8 whole entry): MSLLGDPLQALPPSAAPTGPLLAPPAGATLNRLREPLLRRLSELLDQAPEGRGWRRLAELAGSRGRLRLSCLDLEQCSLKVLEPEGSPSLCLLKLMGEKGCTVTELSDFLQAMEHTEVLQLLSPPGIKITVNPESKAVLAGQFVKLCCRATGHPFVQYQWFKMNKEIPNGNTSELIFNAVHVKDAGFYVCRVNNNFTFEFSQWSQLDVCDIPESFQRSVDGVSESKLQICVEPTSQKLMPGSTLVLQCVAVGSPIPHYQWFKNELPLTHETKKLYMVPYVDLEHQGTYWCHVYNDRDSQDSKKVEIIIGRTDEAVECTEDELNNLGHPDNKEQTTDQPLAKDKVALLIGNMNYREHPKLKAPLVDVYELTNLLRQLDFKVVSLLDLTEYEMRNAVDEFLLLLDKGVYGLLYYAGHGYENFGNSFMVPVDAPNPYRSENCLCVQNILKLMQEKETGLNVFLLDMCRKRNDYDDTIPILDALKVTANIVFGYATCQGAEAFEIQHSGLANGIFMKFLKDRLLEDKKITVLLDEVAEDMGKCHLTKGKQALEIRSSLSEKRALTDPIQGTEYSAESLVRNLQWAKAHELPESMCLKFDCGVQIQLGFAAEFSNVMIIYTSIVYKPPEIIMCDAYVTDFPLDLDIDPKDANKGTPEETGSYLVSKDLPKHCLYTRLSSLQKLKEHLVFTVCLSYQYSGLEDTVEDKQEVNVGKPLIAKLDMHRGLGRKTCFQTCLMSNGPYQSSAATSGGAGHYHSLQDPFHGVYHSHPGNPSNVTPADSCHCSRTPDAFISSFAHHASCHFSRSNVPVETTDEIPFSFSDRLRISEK

# sampleSmiles, IC50, nM
data = [
    ("CC(C)Cc1c(C(=O)Nc2cnc(-n3nccn3)c(Cl)c2)cnn1-c1cccc2ncccc12", 724),
    ("Nc1cnn(-c2ncc(NC(=O)c3cnn(-c4cccc5scnc45)c3C(F)(F)F)cc2Cl)n1", 105),
    ("O=C(Nc1ccnc(C(F)(F)F)c1)c1cnn(-c2cncc3c(F)cccc23)c1C(F)(F)F", 69),
    ("O=C(Nc1cnc(-n2nccn2)c(Cl)c1)c1cnn(-c2cc(=O)[nH]c3ccccc23)c1C(F)(F)F", 550),
    ("Cc1nc(-n2nccn2)c(Cl)cc1NC(=O)c1cnn(-c2cnc(Cl)c3sccc23)c1C(F)(F)F", 13),
    ("Nc1nccc(-c2ccc(NC(=O)c3cnn(-c4cccc5ccncc45)c3C(F)(F)F)cc2Cl)n1", 4570),
    ("COc1cc(NC(=O)c2cnn(-c3cccc4ncccc34)c2C(F)(F)F)cnc1-n1ccnn1", 776),
    ("O=C(Nc1cnc(-n2nccn2)c(Cl)c1)c1cnn(-c2nccc3ccccc23)c1C(F)F", 257),
    ("O=C(Nc1ccc(-n2ccnn2)c(Cl)c1)c1cnn(-c2cncc3ccccc23)c1C(F)(F)F", 60),
    ("Nc1ncc(-n2ncc(C(=O)Nc3cncc(C(F)(F)F)c3)c2C(F)(F)F)c2ccccc12", 115),
    ("CN1CCN(C(=O)c2ncc(NC(=O)c3cnn(-c4cncc5ccccc45)c3C(F)(F)F)cc2Cl)CC1", 631),
    ("N#Cc1cc(NC(=O)c2cnn(-c3cccn4ccnc34)c2C(F)(F)F)cnc1-n1nccn1", 1070),
    ("O=C(Nc1cnc(-n2nccn2)c(Cl)c1)c1cnn(-c2cnc(C(F)F)c3ccccc23)c1C(F)(F)F", 95),
    ("O=C(Nc1cnc(-n2nccn2)c(Cl)c1)c1cnn(-c2cnc(Cl)c3sccc23)c1C(F)(F)F", 72),
    ("O=C(Nc1cnc(-n2nccn2)c(Cl)c1)c1cnn(-c2cnc(N3CC[C@@H](O)C3)c3ccccc23)c1C(F)(F)F", 9),
    ("Cc1nc(-n2nccn2)c(Cl)cc1NC(=O)c1cnn(-c2cncc3sccc23)c1C(F)(F)F", 21),
]

###

- Tested on: IL10 secretion by TMD8 ABC-DLBCL cells
- experimentalDetails: Human IL10 Mesoscale assay (TMD-8)
- Type: cell-based
- appliedConditions: Homo sapiens, TMD8; TMD-8 cells, 24 h
pIC50: −log10 of the molar value.

# sampleSmiles, pIC50
data = [
    ("Cn1ccc(-c2ncc(NC(=O)c3cnn(-c4cncc5ccccc45)c3C(F)(F)F)cc2C#N)n1", 6.95),
    ("Cn1ccnc1-c1ncc(NC(=O)c2cnn(-c3cncc4ccccc34)c2C(F)(F)F)cc1Cl", 6.38),
    ("N#Cc1ncc(-n2ncc(C(=O)Nc3cnc(-n4nccn4)c(Cl)c3)c2C(F)(F)F)c2ccsc12", 7.03),
    ("O=C(Nc1cnc(-n2ccnc2)c(Cl)c1)c1cnn(-c2cncc3ccccc23)c1C(F)(F)F", 6.05),
    ("N#Cc1cc(NC(=O)c2cnn(-c3nccc4ncccc34)c2C(F)(F)F)cnc1-n1nccn1", 6.81),
    ("NC(=O)c1cc(-n2ncc(C(=O)Nc3cnc(-n4nccn4)c(Cl)c3)c2C(F)(F)F)c2ccccc2n1", 7.68),
    ("Cc1cncc2c(-n3ncc(C(=O)Nc4cnc(-n5nccn5)c(Cl)c4)c3C(F)(F)F)cccc12", 5.98),
    ("Cc1nc2cccc(-n3ncc(C(=O)Nc4cnc(-n5nccn5)c(C#N)c4)c3C(F)(F)F)c2s1", 5.75),
]

###

- Tested on: IL6 secretion by OCI-LY3 ABC-DLBCL cells
- experimentalDetails: Human IL6 Mesoscale assay (OCI-LY3)
- Type: cell-based
- appliedConditions: Homo sapiens, 24 h
pIC50: −log10 of the molar value.
Listing: pIC50 of selected compounds

# compound, pIC50
data = [
    ("O=C(Nc1cnc(-n2nccn2)c(Cl)c1)c1cnn(-c2cnc(C3CCCO3)c3ccccc23)c1C(F)(F)F (centres unmarked)", 7.60),
    ("CCOC(C)c1ncc(-n2ncc(C(=O)Nc3cnc(-n4nccn4)c(Cl)c3)c2C(F)(F)F)c2ccccc12 (centres unmarked)", 6.77),
    ("O=C(O)c1cnn(-c2ncc(NC(=O)c3cnn(-c4cccc5ncccc45)c3C(F)(F)F)cc2Cl)n1", 7.55),
    ("N#Cc1cc(NC(=O)c2cnn(-c3cccc4c(=O)[nH]ccc34)c2C(F)(F)F)ccn1", 6.53),
    ("N#Cc1cc(NC(=O)c2cnn(-c3cccc4ncsc34)c2C(F)(F)F)cnc1-n1nccn1", 7.47),
    ("N#Cc1cc(NC(=O)c2cnn(-c3ncnc4ccsc34)c2C(F)(F)F)cnc1-n1nccn1", 7.02),
    ("Nc1cnnn1-c1ncc(NC(=O)c2cnn(-c3cccc4c(=O)[nH]ccc34)c2C(F)(F)F)cc1Cl", 6.23),
    ("Cc1cc(NC(=O)c2cnn(-c3cnc(N)c4ccccc34)c2C(F)(F)F)c(C)nc1-n1nccn1", 6.73),
]

###

- Test system: IL10 secretion by TMD8 ABC-DLBCL cells
- experimentalDetails: Human IL10 Mesoscale assay (TMD-8)
- Assay type: cell-based
- appliedConditions: Homo sapiens, TMD8; TMD-8 cells, 24 h
Cut-off 300 nM on IC50: below means Met, at or above means Not met.

# compound, label
rows = [
    ("O=C(Nc1cnc(-n2nccn2)c(Cl)c1)c1cnn(-c2cccc3nc(F)ccc23)c1C(F)(F)F [Cpd 277]", "Met"),
    ("CN1C(=O)COc2c(Cl)cc(NC(=O)c3cnn(-c4cncc5ccccc45)c3C(F)(F)F)cc21 [Cpd 97]", "Met"),
    ("N#Cc1cc(NC(=O)c2cnn(-c3ccnc4ccsc34)c2C(F)(F)F)cnc1-n1nccn1 [Cpd 128]", "Met"),
    ("Cc1cc(NC(=O)c2cnn(-c3cccc4ncccc34)c2C(F)(F)F)cnc1-c1nnn(C)n1 [Cpd 305]", "Not met"),
    ("Cc1nc(-n2nccn2)c(Cl)cc1NC(=O)c1cnn(-c2cnc(C(N)=O)c3sccc23)c1C(F)(F)F [Cpd 393]", "Met"),
    ("COC(=O)c1ccc(NC(=O)c2cnn(-c3cccc4ncccc34)c2C(F)(F)F)cc1C#N [Cpd 313]", "Not met"),
    ("O=C(Nc1cnc(-c2ncco2)c(Cl)c1)c1cnn(-c2cccc3ncccc23)c1C(F)(F)F [Cpd 91]", "Met"),
    ("O=C(Nc1cnc(-n2nccn2)c(Cl)c1)c1cnn(-c2ccc(C(F)F)c3ncccc23)c1C(F)(F)F [Cpd 397]", "Met"),
]

###

# IC50 annotations
- Test system: IL6 secretion by OCI-LY3 ABC-DLBCL cells
- experimentalDetails: Human IL6 Mesoscale assay (OCI-LY3)
- Type: cell-based
- appliedConditions: Homo sapiens, 24 h
quantityName: IC50 (nM)

# compound, unitName, quantitativeReadout
measured = [
    ("O=C(Nc1cnc(-n2nccn2)c(Cl)c1)c1cnn(-c2cccc3c(C4CCN4)nccc23)c1C(F)(F)F (stereo not drawn)", "nM", 18),
    ("CN(C)C(=O)c1ncc(NC(=O)c2cnn(-c3cccc4c(=O)[nH]ccc34)c2C(F)(F)F)cc1Cl", "nM", 78),
    ("Cc1csc2c(-n3ncc(C(=O)Nc4cnc(-n5nccn5)c(C#N)c4)c3C(F)(F)F)ccnc12", "nM", 646),
    ("O=C(Nc1cnc(-n2nccn2)c(Cl)c1)c1cnn(-c2noc3ccccc23)c1C(F)(F)F", "nM", 589),
    ("Cn1ccc(-c2ncc(NC(=O)c3cnn(-c4cccc5c(=O)[nH]ccc45)c3C(F)(F)F)cc2Cl)n1", "nM", 1780),
    ("N#Cc1cc(NC(=O)c2cnn(-c3ncnc4ccccc34)c2C(F)(F)F)cnc1-n1nccn1", "nM", 182),
    ("O=C(Nc1ccnc(C2CC2)c1)c1cnn(-c2cccc3c(=O)[nH]ccc23)c1C(F)(F)F", "nM", 204),
    ("Cc1cn2c(-n3ncc(C(=O)Nc4cnc(-n5nccn5)c(Cl)c4)c3C(F)(F)F)cccc2n1", "nM", 295),
    ("Nc1ncc(-n2ncc(C(=O)Nc3ccnc(C(F)(F)F)c3)c2C(F)(F)F)c2ccccc12", "nM", 107),
    ("O=C(Nc1cnc(-n2nccn2)c(Cl)c1)c1cnn(-c2cccc3c(=O)[nH]ccc23)c1C(F)(F)F", "nM", 18),
    ("O=C(Nc1cnc(-n2nccn2)c(Cl)c1)c1cnn(-c2cccc3cncn23)c1C(F)(F)F", "nM", 331),
    ("C[C@@H](O)c1ncc(-n2ncc(C(=O)Nc3cnc(-n4nccn4)c(Cl)c3)c2C(F)(F)F)c2ccccc12 (single isomer, unassigned)", "nM", 162),
    ("O=C(Nc1cncc(C(F)(F)F)c1)c1cnn(-c2cccc3c(=O)[nH]ccc23)c1C(F)(F)F", "nM", 191),
    ("O=C(Nc1cnc(-n2nccn2)c(Cl)c1)c1cnn(-c2cccc3ncsc23)c1C(F)(F)F", "nM", 54),
    ("N#Cc1cc(NC(=O)c2cnn(-c3cncc4ccccc34)c2C(F)(F)F)cnc1C(=O)NCCCCN", "nM", 380),
]

Value source: patent US10954214B2
